Source: paper PMC9675976

Please provide measured TSA ∆T for the entries that follow.
- experimental.target: XuaA (Ruminiclostridium cellulolyticum)
- Sequence (B8I0N3 entry or part of it): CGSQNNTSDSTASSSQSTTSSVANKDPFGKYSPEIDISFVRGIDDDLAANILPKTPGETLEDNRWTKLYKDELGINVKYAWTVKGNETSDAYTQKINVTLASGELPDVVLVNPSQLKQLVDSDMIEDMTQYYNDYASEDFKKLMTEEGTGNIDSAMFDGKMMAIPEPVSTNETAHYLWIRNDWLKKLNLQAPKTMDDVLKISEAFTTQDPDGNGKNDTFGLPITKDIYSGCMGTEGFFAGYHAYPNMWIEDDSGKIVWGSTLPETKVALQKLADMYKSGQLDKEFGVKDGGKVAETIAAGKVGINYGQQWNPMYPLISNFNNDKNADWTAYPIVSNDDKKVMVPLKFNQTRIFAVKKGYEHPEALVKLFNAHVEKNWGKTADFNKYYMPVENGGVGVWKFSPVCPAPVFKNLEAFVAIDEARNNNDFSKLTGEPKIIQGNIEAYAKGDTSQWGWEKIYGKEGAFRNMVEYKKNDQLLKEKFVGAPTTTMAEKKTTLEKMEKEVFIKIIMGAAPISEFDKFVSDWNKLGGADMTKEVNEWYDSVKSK
- test.details: Thermal shift assay (TSA) of XuaA with carbohydrate ligands
- Assay type: binding
- particulars: XuaA 8 µM, ligand 1 mM or 0.1 mM (X4, X5, X6), 25 mM phosphate buffer pH 7; mean of at least 2 experiments
Numbers only, in °C.

Solved cases (5 shown):
Input: Please give the measured TSA ∆T for this compound: OC1OC[C@@H](O[C@@H]2OC[C@@H](O)[C@H](O)[C@H]2O)[C@H](O)[C@H]1O (stereo partly drawn) [X2, xylobiose]
Output: 0

Input: Which TSA ∆T reading was recorded for the compound OC1OC[C@@H](O[C@@H]2OC[C@@H](O[C@@H]3OC[C@@H](O)[C@H](O)[C@H]3O)[C@H](O)[C@H]2O)[C@H](O)[C@H]1O (stereo partly drawn) [X3, xylotriose] ?
Output: 0

Input: Record request: TSA ∆T value, item OC1OC[C@@H](O[C@@H]2OC[C@@H](O[C@@H]3OC[C@@H](O[C@@H]4OC[C@@H](O)[C@H](O)[C@H]4O)[C@H](O)[C@H]3O)[C@H](O)[C@H]2O)[C@H](O)[C@H]1O (stereo partly drawn) [X4]
Output: 0

Input: Reported TSA ∆T for OC[C@@H]1O[C@@H](O[C@@H]2[C@@H](O[C@@H]3O[C@@H](CO)[C@H](O)[C@H]3O)[C@H](O[C@@H]3CO[C@@H](O[C@@H]4COC(O)[C@H](O)[C@H]4O)[C@H](O)[C@H]3O)OC[C@H]2O[C@@H]2OC[C@@H](O)[C@H](O)[C@H]2O)[C@H](O)[C@H]1O (stereo partly drawn) [XA^2,3XX] : what is it?
Output: 14

Input: Recorded TSA ∆T for OC1OC[C@@H](O[C@@H]2OC[C@@H](O[C@@H]3OC[C@@H](O[C@@H]4OC[C@@H](O[C@@H]5OC[C@@H](O[C@@H]6OC[C@@H](O)[C@H](O)[C@H]6O)[C@H](O)[C@H]5O)[C@H](O)[C@H]4O)[C@H](O)[C@H]3O)[C@H](O)[C@H]2O)[C@H](O)[C@H]1O (stereo partly drawn) [X6, Xylohexaose] , please?
Output: 0

Others:
Input: Endpoint output: TSA ∆T of OC[C@@H]1O[C@@H](O[C@@H]2[C@@H](O[C@@H]3O[C@@H](CO)[C@H](O)[C@H]3O)[C@H](O[C@@H]3CO[C@@H](O[C@@H]4COC(O)[C@H](O)[C@H]4O)[C@H](O)[C@H]3O)OC[C@H]2O)[C@H](O)[C@H]1O (stereo partly drawn) [A^2,3XX] . Value?
Output: 13.5

----------
- experimental.target: XuaD (Ruminiclostridium cellulolyticum, UniProt B8I0N6)
- Sequence (B8I0N6 entry or part of it): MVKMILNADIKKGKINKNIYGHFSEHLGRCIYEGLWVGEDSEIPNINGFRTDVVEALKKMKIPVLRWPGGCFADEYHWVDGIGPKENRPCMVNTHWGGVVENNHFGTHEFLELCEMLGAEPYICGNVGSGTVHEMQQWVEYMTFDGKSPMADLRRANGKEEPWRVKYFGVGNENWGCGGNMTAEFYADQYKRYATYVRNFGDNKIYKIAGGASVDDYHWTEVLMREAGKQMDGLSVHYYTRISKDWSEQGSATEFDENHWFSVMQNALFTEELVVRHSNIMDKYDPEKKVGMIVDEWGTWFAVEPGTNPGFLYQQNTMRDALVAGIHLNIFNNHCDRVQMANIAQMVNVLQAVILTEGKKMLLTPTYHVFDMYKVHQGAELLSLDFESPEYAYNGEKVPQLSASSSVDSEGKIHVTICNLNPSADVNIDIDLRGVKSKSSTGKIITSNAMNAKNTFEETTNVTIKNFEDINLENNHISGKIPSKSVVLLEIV
- test.details: Enzyme activity of XuaD on AXOS (HPAEC-PAD)
- Type: biochemical
- particulars: HPAEC-PAD
experimental.readout: Products released by XuaD

Input: // Products released by XuaD lookup, key: OC[C@@H]1O[C@@H](O[C@@H]2[C@@H](O[C@@H]3O[C@@H](CO)[C@H](O)[C@H]3O)[C@H](O[C@@H]3CO[C@@H](O[C@@H]4COC(O)[C@H](O)[C@H]4O)[C@H](O)[C@H]3O)OC[C@H]2O)[C@H](O)[C@H]1O (stereo partly shown) [A^2,3XX]
Output: Products: Ara, X3

Input: // lookup Products released by XuaD for OC[C@@H]1O[C@@H](O[C@H]2[C@H](O[C@@H]3CO[C@@H](O[C@@H]4COC(O)[C@H](O)[C@H]4O)[C@H](O)[C@H]3O)OC[C@@H](O)[C@@H]2O)[C@H](O)[C@H]1O (stereo partly shown) [A^2XX]
Output: Products: Ara, X3

Input: Endpoint output: Products released by XuaD of OC[C@@H]1O[C@@H](O[C@@H]2[C@@H](O[C@@H]3O[C@@H](CO)[C@H](O)[C@H]3O)[C@H](O[C@@H]3CO[C@@H](O[C@@H]4COC(O)[C@H](O)[C@H]4O)[C@H](O)[C@H]3O)OC[C@H]2O[C@@H]2OC[C@@H](O)[C@H](O)[C@H]2O)[C@H](O)[C@H]1O (stereo partly shown) [XA^2,3XX] . Value?
Output: Products: Ara, X4

Input: Item under review: OC[C@@H]1O[C@@H](O[C@@H]2[C@@H](O)[C@H](O[C@@H]3CO[C@@H](O[C@@H]4COC(O)[C@H](O)[C@H]4O)[C@H](O)[C@H]3O)OC[C@H]2O[C@@H]2OC[C@@H](O)[C@H](O)[C@H]2O)[C@H](O)[C@H]1O (stereo partly shown) [XA^3XX] . Reported Products released by XuaD?
Output: Products: Ara, X4

----------
Consider the following compounds; for each one, report its TSA ∆T.
- experimental.target: XuaA (Ruminiclostridium cellulolyticum)
- test.details: Thermal shift assay (TSA) of XuaA with carbohydrate ligands
- Type: binding
- particulars: XuaA 8 µM, ligand 1 mM or 0.1 mM (X4, X5, X6), 25 mM phosphate buffer pH 7; mean of at least 2 experiments
Numbers only, in °C.

Input: Could you share what TSA ∆T was measured for OC[C@@H]1O[C@@H](O[C@@H]2[C@@H](O)[C@H](O[C@@H]3CO[C@@H](O[C@@H]4COC(O)[C@H](O)[C@H]4O)[C@H](O)[C@H]3O)OC[C@H]2O[C@@H]2OC[C@@H](O)[C@H](O)[C@H]2O)[C@H](O)[C@H]1O (some centres unmarked) , tested on XuaA (Ruminiclostridium cellulolyticum)?
Output: 11.0

Now look at this entry.
Input: Which measured TSA ∆T belongs to OC[C@@H]1O[C@@H](O[C@H]2[C@H](O[C@@H]3CO[C@@H](O[C@@H]4COC(O)[C@H](O)[C@H]4O)[C@H](O)[C@H]3O)OC[C@@H](O)[C@@H]2O)[C@H](O)[C@H]1O (some centres unmarked) , tested on XuaA (Ruminiclostridium cellulolyticum)?
Output: 6.5

----------
- Test system: XuaG
- test.details: Enzyme activity of XuaG on AXOS and XOS (HPAEC-PAD)
- Assay type: biochemical, Ruminiclostridium cellulolyticum
- particulars: substrate 1 mM, 37 °C
experimental.readout: Specific activity (IU) of XuaG

Input: Look up Specific activity (IU) of XuaG: OC[C@@H]1O[C@@H](O[C@@H]2[C@@H](O[C@@H]3O[C@@H](CO)[C@H](O)[C@H]3O)[C@H](O[C@@H]3CO[C@@H](O[C@@H]4COC(O)[C@H](O)[C@H]4O)[C@H](O)[C@H]3O)OC[C@H]2O)[C@H](O)[C@H]1O (stereo partly shown)
Output: blocks the activity

Input: Would you kindly share the measured Specific activity (IU) of XuaG for OC[C@@H]1O[C@@H](O[C@H]2[C@H](O[C@@H]3CO[C@@H](O[C@@H]4COC(O)[C@H](O)[C@H]4O)[C@H](O)[C@H]3O)OC[C@@H](O)[C@@H]2O)[C@H](O)[C@H]1O (stereo partly shown) ?
Output: blocks the activity
